Provide the recorded Kcat for the entries that follow.
experiment: Standard protocol for determination of kcat and KM (continuous spectrophotometric assay, Acetyl CoA hydrolysis at 235 nm); format: biochemical; conditions: purified protein; about 23° C.; 20 mM HEPES pH 6.8, 10% ethylene glycol, 0.2 mM acetyl CoA
Give the quantity in s⁻¹, number only.

Query SEQ ID NO: 310: GAT polypeptide (protein, 14_12D8, GAT polypeptide) MIEVKPINAEDTYEIRHRILRPNQPLEACKYETDLLGGTFHLGGYYRGKLVSIASFHQAEHPELEGQKQYQLRGMATLEGYREQKAGSTLIRHAEALLRKKGADLLWCNARTSASGYYKKLGFREQGGVYDIPPVGPHILMYKKLT yields Kcat of 1.04

Query SEQ ID NO: 425: GAT polypeptide (protein, 9_15H3, GAT polypeptide) MIEVKPINAEDTYEIRHRILRPNQPLEACMYETDMLRGAFHLGGYYRGKLISIASFHQAEHPELEGQKQYQLRGMATLEEYHEQKAGSTLIRHAEELLRKKGADLLWCNARTSASGYYKKLGFSEQGEVYNTPPVGPHILMYKKLT yields Kcat of 1.14

Query SEQ ID NO: 321: GAT polypeptide (protein, 14_7A9, GAT polypeptide) MIEVKPINAEDTYEIRHRILRPNQPLEACKYETDLLGGTFHLGGYYRGKLVSIASFHQAKHPELEGQKQYQLRGMATLEGYREQKAGSTLIRHAEELLRKKGADLLWCNARTSASGYYKKLGFSEQGEVYDTPPVGPHILMYKKLT yields Kcat of 4.098

Query SEQ ID NO: 441: GAT polypeptide (protein, 0_5B4, GAT polypeptide) MLEVKLINAEDTYELRHRILRPNQPLEACMYETDLLRGAFHLGGFYRGKLISIASFHQAEHSDLEGQKQYQLRGMATLEGFRDQKAGSSLIKHAEEILRKRGANLLWCNARTSASGYYKKLGFSEQGEVFDTPPVGPHILMYKRIT yields Kcat of 3

Query SEQ ID NO: 403: GAT polypeptide (protein, 6_3G3, GAT polypeptide) MIEVKPINAEDTYEIRHRILRPNQPLEACMYETDLLGGTFHLGGYYRGKLISIASFHQAEHSELEGQKQYQLRGMATLEGYREQKAGSTLIRHAEELLRKKGADLLWCNARTSASGYYKKLGFSEQGEVYDIPPVGPHILMYKKLT yields Kcat of 0.865

Query SEQ ID NO: 368: GAT polypeptide (protein, 4B_13G10, GAT polypeptide) MIEVKPINAEDTYEIRHRILRPNQPLEACMYETDLLGGTFHLGGYYRGKLISIASFHQAEHSELEGQKQYQLRGMATLEGYREQKAGSTLIRHAEELLRKKGADLLWCNARTSASGYYKKLGFSEQGGVYDIPPIGPYILMYKKLT yields Kcat of 0.582
